I'd be grateful if you could share measured HPLC Area % at end of synthesis for these entries.
- method: Radiochemical purity by HPLC of ^99mTc-labeled compounds
- Assay type: physicochemical
- stated-conditions: 99Tc-labeled compounds
Numbered stars: 1 amine (or outer) side, 2 acyl side, 3 side chain; on linkers, the order of the positions; unused ones are H or OH. Bridge positions count the residues as written; N and C are the ends. Square brackets hold non-standard residues; d marks the D form. Peptide text beside a SMILES is read from it. * marks the point of attachment. ξ: configuration not given here. X6 = NCCNCC(CNCCN)C(=O)NCCOCCOCCOCCOCCOCCOCCC(=O)NCCCOCCOCCOCCCN*; X1 = NCCNCC(CNCCN)C(=O)N1CCN(CC(=O)NCCCOCCOCCOCCCN*)CC1; Pyridine(3,5-bisCH2) = c1ncc(C[*:2])cc1C[*:1]; mXylylene = c1cc(C[*:1])cc(C[*:2])c1; PEG6 = NCCOCCOCCOCCOCCOCCOCCC(=O)O; Suc = O=C(CCC(=O)[*:2])[*:1]; Nle = CCCC[C@H](N)C(=O)O; X2 = NCCNCC(CNCCN)C(=O)*; ξC = NC(CS)C(=O)O
Give bare numbers, in %.

// known answers, use as guide
[Q] Any idea what its HPLC Area % at end of synthesis is? The molecule is CCCC[C@H](NC(=O)CCC(=O)NCCCOCCOCCOCCCNC(=O)C(CNCCN)CNCCN)C(=O)N[C@H]1CSCc2cncc(c2)CSCC(C(=O)O)NC(=O)[C@H](Cc2ccccc2)NC(=O)[C@H](CCC(N)=O)NC(=O)[C@H]([C@@H](C)O)NC(=O)[C@@H]2CCCN2C(=O)[C@@H]2CCCN2C1=O (stereo partly drawn) [3BP-4549]
[A] 99.3

[Q] Any idea what its HPLC Area % at end of synthesis is? The molecule is CCCC[C@H](NC(=O)CCOCCOCCOCCOCCOCCOCCNC(=O)C(CNCCN)CNCCN)C(=O)N[C@H]1CSCc2cccc(c2)CSCC(C(=O)O)NC(=O)[C@H](Cc2ccccc2)NC(=O)[C@H](CCC(N)=O)NC(=O)[C@H]([C@@H](C)O)NC(=O)[C@@H]2CCCN2C(=O)[C@@H]2CCCN2C1=O (stereo partly drawn) [3BP-4551]
[A] 94.1

[Q] Any idea what its HPLC Area % at end of synthesis is? The molecule is CCCCNC(=O)N[C@H]1CSCc2cc(CSCCNC(=O)C(CNCCN)CNCCN)cc(c2)CSC[C@@H](C(=O)O)NC(=O)[C@H](Cc2ccccc2)NC(=O)[C@H](CCC(N)=O)NC(=O)[C@H]([C@@H](C)O)NC(=O)[C@@H]2CCCN2C(=O)[C@@H]2CCCN2C1=O [3BP-4534]
[A] 98.6

[Q] Any idea what its HPLC Area % at end of synthesis is? The molecule is CCCC[C@H](NC(=O)CCC(=O)NCCCOCCOCCOCCCNC(=O)CCOCCOCCOCCOCCOCCOCCNC(=O)C(CNCCN)CNCCN)C(=O)N[C@H]1CSCc2cccc(c2)CSC[C@@H](C(=O)O)NC(=O)[C@H](Cc2ccccc2)NC(=O)[C@H](CCC(=O)O)NC(=O)[C@H]([C@@H](C)O)NC(=O)[C@@H]2CCCN2C(=O)[C@@H]2CCCN2C1=O [3BP-4780] ({X6-Suc}-[Nle]CPPTEFC-OH; linker 2-8 via mXylylene)
[A] 95.0

[Q] Any idea what its HPLC Area % at end of synthesis is? The molecule is CCCC[C@H](NC(=O)CCC(=O)NCCCOCCOCCOCCCNC(=O)CN1CCN(C(=O)C(CNCCN)CNCCN)CC1)C(=O)N[C@H]1CSCc2cccc(c2)CSC[C@@H](C(=O)N[C@@H](CC(=O)O)C(=O)O)NC(=O)[C@H](Cc2ccccc2)NC(=O)[C@H](CCC(=O)O)NC(=O)[C@H]([C@@H](C)O)NC(=O)[C@@H]2CCCN2C(=O)[C@@H]2CCCN2C1=O [3BP-4785] ({X1-Suc}-[Nle]CPPTEFCD-OH; linker 2-8 via mXylylene)
[A] 95.3

[Q] Any idea what its HPLC Area % at end of synthesis is? The molecule is CCCC[C@H](NC(=O)CCC(=O)NCCCOCCOCCOCCCNC(=O)CN1CCN(C(=O)C(CNCCN)CNCCN)CC1)C(=O)N[C@H]1CSCc2cccc(c2)CSC[C@@H](C(=O)O)NC(=O)[C@H](Cc2ccccc2)NC(=O)[C@H](CCC(=O)O)NC(=O)[C@H]([C@@H](C)O)NC(=O)[C@@H]2CCCN2C(=O)[C@@H]2CCCN2C1=O [3BP-4782] ({X1-Suc}-[Nle]CPPTEFC-OH; linker 2-8 via mXylylene)
[A] 97.1

[Q] Any idea what its HPLC Area % at end of synthesis is? The molecule is CCCC[C@H](NC(=O)CCOCCOCCOCCOCCOCCOCCNC(=O)C(CNCCN)CNCCN)C(=O)N[C@H]1CSCc2cncc(c2)CSCC(C(=O)O)NC(=O)[C@H](Cc2ccccc2)NC(=O)[C@H](CCC(=O)O)NC(=O)[C@H]([C@@H](C)O)NC(=O)[C@@H]2CCCN2C(=O)[C@@H]2CCCN2C1=O (stereo partly drawn) [3BP-4773] ({X2-PEG6}-[Nle]CPPTEF[ξC]-OH; linker 2-8 via Pyridine(3,5-bisCH2))
[A] 95.8

[Q] Any idea what its HPLC Area % at end of synthesis is? The molecule is CCCC[C@H](NC(=O)CCC(=O)NCCCOCCOCCOCCCNC(=O)CN1CCN(C(=O)C(CNCCN)CNCCN)CC1)C(=O)N[C@H]1CSCc2cncc(c2)CSC[C@@H](C(=O)NCCC(=O)O)NC(=O)[C@H](Cc2ccccc2)NC(=O)[C@H](CCC(N)=O)NC(=O)[C@H]([C@@H](C)O)NC(=O)[C@@H]2CCCN2C(=O)[C@@H]2CCCN2C1=O [3BP-4961]
[A] 98.0

Lab note: each molecule below needs its HPLC Area % at end of synthesis filled in.
1. CCCCNC(=O)N[C@H]1CSCc2cc(cc(CN3CCN(C(=O)C(CNCCN)CNCCN)CC3)c2)CSC[C@@H](C(=O)O)NC(=O)[C@H](Cc2ccccc2)NC(=O)[C@H](CCC(N)=O)NC(=O)[C@H]([C@@H](C)O)NC(=O)[C@@H]2CCCN2C(=O)[C@@H]2CCCN2C1=O [3BP-4533]
2. CCCC[C@H](NC(=O)CCOCCOCCOCCOCCOCCOCCNC(=O)C(CNCCN)CNCCN)C(=O)N[C@H]1CSCc2cncc(c2)CSCC(C(=O)O)NC(=O)[C@H](Cc2ccccc2)NC(=O)[C@H](CCC(N)=O)NC(=O)[C@H]([C@@H](C)O)NC(=O)[C@@H]2CCCN2C(=O)[C@@H]2CCCN2C1=O (stereo partly drawn) [3BP-4550]
3. CCCC[C@H](NC(=O)CCC(=O)NCCCOCCOCCOCCCNC(=O)CN1CCN(C(=O)C(CNCCN)CNCCN)CC1)C(=O)N[C@H]1CSCc2cccc(c2)CSCC(C(=O)O)NC(=O)[C@H](Cc2ccccc2)NC(=O)[C@H](CCC(N)=O)NC(=O)[C@H]([C@@H](C)O)NC(=O)[C@@H]2CCCN2C(=O)[C@@H]2CCCN2C1=O (stereo partly drawn) [3BP-4541]

[A]
1: 99.3; 2: 100; 3: 95.8

[Q] Any idea what its HPLC Area % at end of synthesis is? The molecule is CCCC[C@H](NC(=O)CCC(=O)NCCCOCCOCCOCCCNC(=O)CN1CCN(C(=O)C(CNCCN)CNCCN)CC1)C(=O)N[C@H]1CSCc2cccc(c2)CSC[C@@H](C(=O)NCCC(=O)O)NC(=O)[C@H](Cc2ccccc2)NC(=O)[C@H](CCC(N)=O)NC(=O)[C@H]([C@@H](C)O)NC(=O)[C@@H]2CCCN2C(=O)[C@@H]2CCCN2C1=O [3BP-4960]
[A] 95.2
